# system: WDR5^WT (WIN site) (Homo sapiens, UniProt P61964)
# study.conditions: read-out: Ki (tracer 1F); WIN site; WDR5^WT 2 nM, 1F 0.6 nM; HEPES pH 7.0, 0.01% Triton-X, 1% DMSO; mean ± SD of four replicates (two biological x two technical); converted from IC50
pKi: −log10 of the molar value.
observation.type: pKi

Challenge: Request the reported pKi associated with CNC(=O)c1cc(C2(C#N)CCC2)cc(NS(=O)(=O)c2cc(Br)cc(Cl)c2O)c1O
Response given: < 4.40

---

# system: WDR5^WT (WBM site) (Homo sapiens, UniProt P61964)
# study.conditions: read-out: Ki (tracer 2F); WBM site; WDR5^WT 500 nM, 2F 5.0 nM; HEPES pH 7.0, 0.01% Triton-X, 1% DMSO; mean ± SD of four replicates (two biological x two technical); converted from IC50
observation.type: Ki (nM)
One number for each entry, in nM.

Challenge: Find the recorded Ki belonging to CNC(=O)c1cc(C2(C#N)CCC2)cc(NS(=O)(=O)c2cc(Br)cc(Cl)c2O)c1O and report it.
Response given: 107

These data points were gathered from paper PMC10880924.
